test: Apparent permeability from apical to basolateral side in human Caco2 cells at 10 uM after 2 hrs by LC-MS/MS analysis; conditions: Caco-2
Starred links: 1 amine or outer side, 2 acyl side, 3 side chain; linkers in the order of their positions; H or OH if unused. Non-standard residues stand in square brackets, D forms with d. Residues, ends and D or L forms follow the SMILES beside them. Ile(ψThz) = CC[C@H](C)[C@H](N[*:1])c1nc(C(=O)[*:2])cs1; NMeI = CC[C@H](C)[C@H](NC)C(=O)O
measured.attribute: Papp A→B at 2 h, 10 µM (nm/s)

Below, each entry is followed by its recorded Papp A→B at 2 h, 10 µM result.
CC[C@H](C)[C@@H]1NC(=O)[C@@H]2CCCN2C(=O)[C@H]([C@@H](C)O)NC(=O)[C@@H]2CCCN2C(=O)[C@H](Cc2ccccc2)NC(=O)[C@H](C)NC(=O)c2csc1n2 (cyclo(AFPTP[Ile(ψThz)])) : 4
CC[C@H](C)[C@@H]1NC(=O)[C@@H]2CCCN2C(=O)[C@H]([C@@H](C)CC)N(C)C(=O)[C@@H]2CCCN2C(=O)[C@H](Cc2ccccc2)NC(=O)[C@H](C)NC(=O)c2csc1n2 (cyclo(AFP[NMeI]P[Ile(ψThz)])) : 4

1 = CC[C@H](C)[C@@H]1NC(=O)[C@@H]2CCCN2C(=O)[C@H](CC(C)C)NC(=O)[C@@H]2CCCN2C(=O)[C@H](Cc2ccccc2)NC(=O)[C@H](C)NC(=O)c2csc1n2 (cyclo(AFPLP[Ile(ψThz)]))
2 = CC[C@H](C)[C@@H]1NC(=O)[C@@H]2CCCN2C(=O)[C@H](C(C)C)NC(=O)[C@@H]2CCCN2C(=O)[C@H](Cc2ccccc2)NC(=O)[C@H](C)NC(=O)c2csc1n2 (cyclo(AFPVP[Ile(ψThz)]))
Sorting ascending by Papp A→B at 2 h, 10 µM, which comes first: 1 or 2 ? Lab note: record the label of whichever item you select. 1
(1: 2 nm/s, 2: 3 nm/s)

---

assay: Apparent permeability from apical to basolateral side in human Caco2 cells at 10 uM after 2 hrs by LC-MS/MS analysis; settings: Caco-2
Starred links: 1 amine or outer side, 2 acyl side, 3 side chain; linkers in the order of their positions; H or OH if unused. Non-standard residues stand in square brackets, D forms with d. Residues, ends and D or L forms follow the SMILES beside them. Ile(ψThz) = CC[C@H](C)[C@H](N[*:1])c1nc(C(=O)[*:2])cs1; LeuThz(4-CO) = CC(C)C[C@H](N[*:1])c1nc(C(=O)[*:2])cs1; ValThz = CC(C)[C@H](N[*:1])c1nc(C(=O)[*:2])cs1; NMeF = CN[C@@H](Cc1ccccc1)C(=O)O; NMeA = CN[C@@H](C)C(=O)O
measured.attribute: Papp A→B at 2 h, 10 µM (×10⁻⁶ cm/s)

CC[C@H](C)[C@@H]1NC(=O)[C@@H]2CCCN2C(=O)[C@H](Cc2ccccc2)N(C)C(=O)[C@H](C)NC(=O)c2csc(n2)[C@H]([C@@H](C)CC)NC(=O)[C@@H]2CCCN2C1=O (cyclo(A[NMeF]PIP[Ile(ψThz)])) : 7.4
CC[C@H](C)[C@@H]1NC(=O)[C@@H]2CCCN2C(=O)[C@H](Cc2ccccc2)NC(=O)[C@H](C)NC(=O)c2csc(n2)[C@H](CC(C)C)NC(=O)[C@@H]2CCCN2C1=O (cyclo(AFPIP[LeuThz(4-CO)])) : 1.3
CC[C@H](C)[C@@H]1NC(=O)[C@@H]2CCCN2C(=O)[C@H](C(C)C)NC(=O)[C@@H]2CCCN2C(=O)[C@H](Cc2ccccc2)N(C)C(=O)[C@H](C)NC(=O)c2csc1n2 (cyclo(A[NMeF]PVP[Ile(ψThz)])) : 6.8
CC[C@H](C)[C@@H]1NC(=O)[C@@H]2CCCN2C(=O)[C@H](Cc2ccccc2)NC(=O)[C@H](CC(C)C)NC(=O)c2csc(n2)[C@H]([C@@H](C)CC)NC(=O)[C@@H]2CCCN2C1=O (cyclo(FPIP[Ile(ψThz)]L)) : 10.9
CC(C)[C@@H]1NC(=O)c2csc(n2)[C@H](C(C)C)NC(=O)[C@@H]2CCCN2C(=O)[C@H](C(C)C)NC(=O)[C@@H]2CCCN2C(=O)[C@H](Cc2ccccc2)NC1=O (cyclo(FPVP[ValThz]V)) : 2.2
CC[C@H](C)[C@@H]1NC(=O)c2csc(n2)[C@H]([C@@H](C)CC)NC(=O)[C@@H]2CCCN2C(=O)[C@H]([C@@H](C)CC)NC(=O)[C@@H]2CCCN2C(=O)[C@H](Cc2ccccc2)N(C)C1=O (cyclo(I[NMeF]PIP[Ile(ψThz)])) : 21.2

1 = CC[C@H](C)[C@@H]1NC(=O)[C@@H]2CCCN2C(=O)[C@H](Cc2ccccc2)NC(=O)[C@H](C)N(C)C(=O)c2csc(n2)[C@H]([C@@H](C)CC)NC(=O)[C@@H]2CCCN2C1=O (cyclo(FPIP[Ile(ψThz)][NMeA]))
2 = CC[C@H](C)[C@@H]1NC(=O)[C@@H]2CCCN2C(=O)[C@H](Cc2ccccc2)NC(=O)[C@H](C)NC(=O)c2csc(n2)[C@H]([C@@H](C)CC)NC(=O)[C@@H]2CCCN2C1=O (cyclo(AFPIP[Ile(ψThz)]))
3 = CC[C@H](C)[C@@H]1NC(=O)[C@@H]2CCCN2C(=O)[C@H](Cc2ccccc2)N(C)C(=O)[C@H](CC(C)C)NC(=O)c2csc(n2)[C@H]([C@@H](C)CC)NC(=O)[C@@H]2CCCN2C1=O (cyclo(IP[Ile(ψThz)]L[NMeF]P))
In this exercise, place the 3 compounds in ascending sequence of their recorded Papp A→B at 2 h, 10 µM. Output the labels ranked as instructed. 1, 2, 3
(1: 0.2 ×10⁻⁶ cm/s, 2: 1.3 ×10⁻⁶ cm/s, 3: 19.3 ×10⁻⁶ cm/s)
